# credit: PubChem BioAssay (Tox21)

biological target: Cytochrome P450 2C9 (Homo sapiens); assay: Cytochrome P450 Family 2 Subfamily C Member 9 (CYP2C9) small molecule antagonists: luciferase reporter qHTS assay (AID 1671198); conditions: P450-Glo CYP2C9 enzyme assay, luciferin luminescence; series mostly up to 115 µM; note: nearly all actives have a fitted effect of over 50% in size; note: potency is the fitted concentration of half-maximal effect
Inconclusive results are not listed. Active and inactive are the calls of the source. Calls come from the whole dose curve; as a rule, active = well fitted inhibition curve with a large enough effect in the repeat runs; inconclusive = weak or mixed curves; inactive = no such curve, though single readings can be large or run the other way.
OUTCOME_MEASURE: Potency

Example cases with answers are listed next.
O=[N+]([O-])c1ccc(Oc2ccc(C(F)(F)F)cc2[N+](=O)[O-])cc1 :: 25.2 µM (active)
CCC(C)(C)C(=O)OC1=C(c2ccc(Cl)cc2Cl)C(=O)OC12CCCCC2 :: 31.7 µM (active)
Nc1ccccc1C(=O)Oc1ccc2ccccc2c1 :: 20 µM (active)
CCN :: inactive
NNC(=O)c1ccccc1 :: 41 µM (active)

Query block: Endpoint output: Potency of `CC(C)[C@H](C(=O)O[C@H](C#N)c1cccc(Oc2ccccc2)c1)c1ccc(Cl)cc1` . Value?
Result block: 5.63 µM (active)

Query block: Endpoint output: Potency of `C[C@H]1O[C@@H](O[C@H]2[C@@H](O)C[C@H](O[C@H]3[C@@H](O)C[C@H](O[C@H]4CC[C@@]5(C)[C@H](CC[C@@H]6[C@@H]5CC[C@]5(C)[C@@H](C7=CC(=O)OC7)CC[C@]65O)C4)O[C@@H]3C)O[C@@H]2C)C[C@H](O)[C@@H]1O` . Value?
Result block: inactive

Query block: Endpoint output: Potency of `BrCBr` . Value?
Result block: inactive

Query block: Endpoint output: Potency of `Cc1ccc(OP(=O)(Oc2ccccc2)Oc2ccccc2)cc1` . Value?
Result block: 6.42 µM (active)

Query block: Endpoint output: Potency of `CC(=[OH+])/C=C(/C)[O-].CC(=[OH+])/C=C(\C)[O-].CC(=[OH+])/C=C(\C)[O-].[Fe]` . Value?
Result block: inactive

====

assay: qHTS assay to identify small molecule antagonists of the estrogen related receptor signaling pathway with the pleiotropic PPARgamma coactivator (PGC) from Tox21 10K library - cell viability counter screen (AID 1224840); details: PGC/ERR reporter cells viability, CellTiter-Fluor, 17.5 h; series mostly up to 92.4 µM; note: nearly all actives have a fitted effect of over 40% in size
Results filed as inconclusive are left out. Calls of active or inactive are those of the source. The call rests on the fitted dose curve; in most records, active means well fitted cell-killing curve with a large enough effect in the repeat runs (not every such curve was filed as active); inconclusive means weak or mixed curves, or effect the other way; inactive means no such curve, though single readings can be large or run the other way.
Result category, one only: 1 (yes) (active), 0 (no) (inactive)

Use these answered entries as a reference point.
CN(C)CCc1c[nH]c2cccc(O)c12 :: 0 (no)
ClC1=C(Cl)[C@]2(Cl)[C@H]3[C@H]([C@H]4C=C[C@H]3C4)[C@@]1(Cl)C2(Cl)Cl :: 0 (no)

Query block: Just curious, what result did `C=CC(=O)N(C)C` get here?
Result block: 0 (no)

Query block: Just curious, what result did `COC(=O)N(C(=O)N1CO[C@@]2(C(=O)OC)Cc3cc(Cl)ccc3C2=N1)c1ccc(OC(F)(F)F)cc1` get here?
Result block: 0 (no)

Query block: Just curious, what result did `CC(=O)[O-].[Tl+]` get here?
Result block: 0 (no)

Query block: Just curious, what result did CCSC(C)CC1CC(=O)C(/C(CC)=N/OC/C=C/Cl)=C(O)C1 (configuration not stated) get here?
Result block: 0 (no)

Query block: Just curious, what result did `COc1ccc(/C(=C/C(=O)N2CCOCC2)c2ccc(Cl)cc2)cc1OC` get here?
Result block: 0 (no)

Query block: Just curious, what result did `Oc1ccc(C2(c3ccc(O)cc3)c3ccccc3-c3ccccc32)cc1` get here?
Result block: 1 (yes)

Query block: Just curious, what result did `CSCCCN=C=S` get here?
Result block: 0 (no)

Query block: Just curious, what result did `CC(=O)c1ccc(-c2ccccc2)cc1` get here?
Result block: 0 (no)

Query block: Just curious, what result did O=C(O)C1C2CCC(O2)C1C(=O)O (configuration not stated) get here?
Result block: 0 (no)

Query block: Just curious, what result did `COc1cc(C=O)cc2c1[C@H](COC(N)=O)[C@]1(OC(C)=O)ON2C[C@H]2[C@@H]1N2C(C)=O` get here?
Result block: 0 (no)

====

target: Acetylcholinesterase (Homo sapiens) (UniProt P22303); experiment: Acetylcholinesterase (AChE) small molecule antagonists: enzyme-based qHTS assay with human liver microsomes (AID 1347399); conditions: qHTS inhibition; series mostly up to 115 µM; note: % is set by controls: 0 for no effect and ±100 for the full control effect; nearly all actives have a fitted effect of over 60% in size
Sequence (P22303 whole entry, looked up): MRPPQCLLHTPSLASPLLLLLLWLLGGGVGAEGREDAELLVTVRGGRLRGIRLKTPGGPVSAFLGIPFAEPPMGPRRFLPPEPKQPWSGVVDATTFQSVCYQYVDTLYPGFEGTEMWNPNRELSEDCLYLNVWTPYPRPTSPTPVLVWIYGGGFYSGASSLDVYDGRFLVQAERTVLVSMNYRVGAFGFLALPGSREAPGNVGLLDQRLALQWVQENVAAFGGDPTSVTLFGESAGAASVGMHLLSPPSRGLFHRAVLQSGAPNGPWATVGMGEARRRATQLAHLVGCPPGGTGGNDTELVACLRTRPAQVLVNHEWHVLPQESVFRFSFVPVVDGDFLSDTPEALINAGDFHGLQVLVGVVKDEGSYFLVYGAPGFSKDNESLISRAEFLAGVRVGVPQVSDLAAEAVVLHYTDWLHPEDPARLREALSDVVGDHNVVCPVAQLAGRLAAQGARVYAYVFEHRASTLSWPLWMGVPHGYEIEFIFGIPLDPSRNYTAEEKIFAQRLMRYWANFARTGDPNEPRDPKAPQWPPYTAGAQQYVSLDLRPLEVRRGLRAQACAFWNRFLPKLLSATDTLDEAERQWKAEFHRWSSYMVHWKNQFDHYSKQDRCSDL
Activity calls are given as the source filed them. The call rests on the fitted dose curve.
Result category, one only: label 1 (active), label 0 (inactive)

CCN(CC)c1c([N+](=O)[O-])cc(C(F)(F)F)c(N)c1[N+](=O)[O-] :: label 0

Query block: Just curious, what result did `CCS(=O)(=O)c1cccnc1S(=O)(=O)NC(=O)Nc1nc(OC)cc(OC)n1` get here?
Result block: label 0

Query block: Just curious, what result did CCOc1cc(C(C)(C)C)ccc1C1COC(c2c(F)cccc2F)=N1 (stereo not given) get here?
Result block: label 0

Query block: Just curious, what result did `CCN(CC)C(=S)[S-].CCN(CC)C(=S)[S-].[Zn+2]` get here?
Result block: label 0

Query block: Just curious, what result did `COC(=O)N(C(=O)N1CO[C@@]2(C(=O)OC)Cc3cc(Cl)ccc3C2=N1)c1ccc(OC(F)(F)F)cc1` get here?
Result block: label 0

Query block: Just curious, what result did `Oc1cccc(-c2ccccc2)c1` get here?
Result block: label 0

====

assay: qHTS assay to identify small molecule antagonists of the sonic hedgehog signaling (Shh) pathway (AID 1259369); conditions: NIH/3T3 Gli1-Luc reporter, Shh antagonist, luminescence 24 h; series mostly up to 92.4 µM; note: potency is the fitted concentration of half-maximal effect; nearly all actives have a fitted effect of over 45% in size
Inconclusive results are not listed. Calls of active or inactive are those of the source. The call rests on the fitted dose curve.
Result category, one only: active, inactive

CCOc1cc(C(C)(C)C)ccc1C1COC(c2c(F)cccc2F)=N1 (centres undefined) :: active
O=C1C=CC(=O)c2ccccc21 :: active
Oc1ccc(C2(c3ccc(O)cc3)CCCCC2)cc1 :: active
CN(C)CCc1c[nH]c2cccc(O)c12 :: active
COC12CC[C@@]3(C[C@@H]1C(C)(O)C(C)(C)C)[C@H]1Cc4ccc(O)c5c4[C@@]3(CCN1CC1CC1)[C@H]2O5 (some centres undefined) :: active

Query block: Just curious, what result did `Cc1ccc(OP(=O)(Oc2ccccc2)Oc2ccccc2)cc1` get here?
Result block: active

====

assay: qHTS assay for small molecule disruptors of the mitochondrial membrane potential (AID 720635); settings: HepG2 mitochondrial membrane potential, Mito-MPS dye ratio; series mostly up to 83.2 µM; note: potency is the fitted concentration of half-maximal effect
Records with an inconclusive call do not appear. The source made the active and inactive calls. The call rests on the fitted dose curve; in most records, active means well fitted inhibition curve with a large enough effect in the signal ratio in the repeat runs; inconclusive means weak or mixed curves, or effect the other way; inactive means flat fitted curve, though single readings scatter; the % refers to the signal ratio.
OUTCOME_MEASURE: Potency

Example cases with answers are listed next.
O=C(CCl)C(Cl)Cl :: 61.7 µM (active)
CC(C)CC(C)N (stereo not drawn) :: inactive
Oc1c(Br)c(Br)c(Br)c(Br)c1Br :: 2.45 µM (active)
Oc1ccc(C2(c3ccc(O)cc3)CCCCC2)cc1 :: 16.3 µM (active)
CCN(CC)C(=S)[S-].CCN(CC)C(=S)[S-].[Zn+2] :: 3.41 µM (active)

Query block: Endpoint output: Potency of `CC(=O)Nc1ccc2c(c1)Cc1ccccc1-2` . Value?
Result block: 31.1 µM (active)

Query block: Endpoint output: Potency of `O=[N+]([O-])c1ccc2ccc3cccc4ccc1c2c34` . Value?
Result block: 1.22 µM (active)

Query block: Endpoint output: Potency of CCOP(=S)(OCC)OC(Cl)C(Cl)(Cl)Cl (stereo not drawn) . Value?
Result block: 61.1 µM (active)

Query block: Endpoint output: Potency of `OC(c1ccc(Cl)cc1)(c1ccc(Cl)cc1)C(Cl)(Cl)Cl` . Value?
Result block: 6.11 µM (active)

Query block: Endpoint output: Potency of `O=[N+]([O-])c1cc([N+](=O)[O-])c2ccccc2c1` . Value?
Result block: 10.9 µM (active)

Query block: Endpoint output: Potency of CCOC(=O)OC1=C(c2cc(C)ccc2C)C(=O)NC12CCC(OC)CC2 (stereo not drawn) . Value?
Result block: 21.7 µM (active)

Query block: Endpoint output: Potency of `Oc1ccc2ccc3cccc4ccc1c2c34` . Value?
Result block: 2.73 µM (active)

Query block: Endpoint output: Potency of COC12CC[C@@]3(C[C@@H]1C(C)(O)C(C)(C)C)[C@H]1Cc4ccc(O)c5c4[C@@]3(CCN1CC1CC1)[C@H]2O5 (stereo partly drawn) . Value?
Result block: 19.2 µM (active)

Query block: Endpoint output: Potency of CCCCCCCCCCCCCC[P+](CCCCCC)(CCCCCC)CCCCCC (tested in a mixture with another compound) . Value?
Result block: 0.243 µM (active)

Query block: Endpoint output: Potency of `Clc1ccc(C(Cl)(Cl)Cl)c(Cl)c1` . Value?
Result block: 61.6 µM (active)

Query block: Endpoint output: Potency of `Cn1cc(C2=C(c3cn(C4CCN(Cc5ccccn5)CC4)c4ccccc34)C(=O)NC2=O)c2ccccc21` . Value?
Result block: inactive

Query block: Endpoint output: Potency of CC(C)CC(C)Nc1ccc(Nc2ccccc2)cc1 (stereo not drawn) . Value?
Result block: 13.4 µM (active)

Query block: Endpoint output: Potency of `CCC(C)(C)C(=O)OC1=C(c2ccc(Cl)cc2Cl)C(=O)OC12CCCCC2` . Value?
Result block: 9.69 µM (active)

Query block: Endpoint output: Potency of `O=c1[nH]c2ccccc2n1CCCN1CCC(n2c(=O)[nH]c3cc(Cl)ccc32)CC1` . Value?
Result block: inactive

Query block: Endpoint output: Potency of `Cc1cc(C(F)(C(F)(F)F)C(F)(F)F)ccc1NC(=O)c1cccc(I)c1C(=O)NC(C)(C)CS(C)(=O)=O` . Value?
Result block: 17.3 µM (active)

Query block: Endpoint output: Potency of `BrCBr` . Value?
Result block: inactive

Query block: Endpoint output: Potency of `ClC1=C(Cl)[C@]2(Cl)[C@H]3[C@H]([C@H]4C=C[C@H]3C4)[C@@]1(Cl)C2(Cl)Cl` . Value?
Result block: 43.3 µM (active)

Query block: Endpoint output: Potency of CC(C)C1CCC(Cc2ccc(Cl)cc2)C1(O)Cn1cncn1 (stereo not drawn) . Value?
Result block: 15.2 µM (active)
